Entries and their measured melting point follow.

// solved cases for melting point follow
Cc1oc(-c2ccccc2)nc1CCc1nc(COc2cccc(CC(=O)O)c2)co1; 127 to 128 °C
Cc1oc(-c2ccccc2)nc1CCc1noc(COc2cccc(CC(=O)O)c2)n1; 93 to 94 °C
Cc1oc(-c2ccccc2)nc1COc1cncc(COc2cccc(CC(=O)O)c2)c1; 143 to 144 °C
Cc1oc(-c2ccccc2)nc1COc1cc(COc2ncccc2CC(=O)O)on1; 129 to 130 °C

query: Tell me the measured melting point of COC(=O)Cc1cc(C)ccc1OCc1ccc(OCc2nc(-c3ccccc3)oc2C)cc1 , please.
result: 80 to 81 °C
